target.under.test: Leukotriene A-4 hydrolase (Homo sapiens, UniProt P09960)
Sequence (P09960 whole entry): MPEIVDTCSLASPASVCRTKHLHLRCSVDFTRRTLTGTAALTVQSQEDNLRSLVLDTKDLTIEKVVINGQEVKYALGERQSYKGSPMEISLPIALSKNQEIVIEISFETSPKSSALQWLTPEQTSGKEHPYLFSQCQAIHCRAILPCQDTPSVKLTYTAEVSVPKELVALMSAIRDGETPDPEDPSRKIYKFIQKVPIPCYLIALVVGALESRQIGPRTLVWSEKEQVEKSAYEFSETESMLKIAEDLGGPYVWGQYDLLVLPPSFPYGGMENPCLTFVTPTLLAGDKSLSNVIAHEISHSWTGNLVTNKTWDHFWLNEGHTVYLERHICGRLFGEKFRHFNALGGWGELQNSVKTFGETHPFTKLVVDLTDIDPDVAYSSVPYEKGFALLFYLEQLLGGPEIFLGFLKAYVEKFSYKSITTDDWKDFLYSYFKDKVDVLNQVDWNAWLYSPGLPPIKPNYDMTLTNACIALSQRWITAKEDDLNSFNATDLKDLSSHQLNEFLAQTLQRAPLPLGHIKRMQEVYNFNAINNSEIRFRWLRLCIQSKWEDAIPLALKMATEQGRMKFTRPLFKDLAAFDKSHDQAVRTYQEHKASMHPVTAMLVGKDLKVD
assay.details: Inhibition of recombinant human LTA4H expressed in Sf9 cells using LTA4 as substrate incubated for 10 mins prior to substrate addition measured after 10 to 30 mins by enzyme immunoassay
API: label(entry) gives condition met if the entry's IC50 is strictly smaller than 30 nM; on equality or larger values it gives condition not met.

Examples from the recorded data:
compound	target.under.test	assigned.class
CC(=O)NC1CCN(Cc2coc3cc(Oc4nc5ncccc5s4)ccc23)CC1	Leukotriene A-4 hydrolase (Homo sapiens, UniProt P09960)	condition met
CC(=O)N1CC2CC1CN2Cc1cc2cc(Oc3nc4ncccc4s3)ccc2o1 (stereo not given)	Leukotriene A-4 hydrolase (Homo sapiens, UniProt P09960)	condition met
CC(=O)N1CC2CC1CN2Cc1coc2cc(Oc3nc4cccnc4s3)ccc12 (stereo not given)	Leukotriene A-4 hydrolase (Homo sapiens, UniProt P09960)	condition not met
c1ccc2sc(Oc3ccc4oc(CN5CCCCC5)cc4c3)nc2c1	Leukotriene A-4 hydrolase (Homo sapiens, UniProt P09960)	condition not met
c1ccc2sc(Oc3ccc4c(CN5CCCCC5)coc4c3)nc2c1	Leukotriene A-4 hydrolase (Homo sapiens, UniProt P09960)	condition not met

hey, is IC50 for "O=C(O)C1CCN(Cc2coc3cc(Oc4nc5ccccc5s4)ccc23)CC1" lower than 30 nM or not?
condition met

hey, is IC50 for CC(=O)N1CC2CC1CN2Cc1cc2cc(Oc3nc4cccnc4s3)ccc2o1 (stereo not given) lower than 30 nM or not?
condition not met

hey, is IC50 for "c1cnc2nc(Oc3ccc4cc(CN5CCCCC5)oc4c3)sc2c1" lower than 30 nM or not?
condition not met

hey, is IC50 for CC(=O)N1CC2CC1CN2Cc1cc2ccc(Oc3nc4cccnc4s3)cc2o1 (stereo not given) lower than 30 nM or not?
condition not met

hey, is IC50 for "CC(=O)NC1CCN(Cc2coc3cc(Oc4nc5ccccc5s4)ccc23)CC1" lower than 30 nM or not?
condition met

###

assay.details: Volume of distribution at steady state in Sprague-Dawley rat at 3 mg/kg, iv and 10 mg/kg, po
Type: ADME, organism-based
conditions.used: in vivo, read-out: Vdss
endpoint.name: Vd

molecule.smiles	value.reported
O=C1CCCN1C1CCN(Cc2coc3cc(Oc4nc5ncccc5s4)ccc23)CC1	1.6 L/kg

Please look at the following molecule next.
Field Vd (entry "O=C1CCCN1C1CCN(CCOc2ccc(Oc3nc4ccccc4s3)cc2)CC1" ) reads 1.1 L/kg

###

target.under.test: Leukotriene A-4 hydrolase (Mus musculus)
Sequence (P24527 whole entry): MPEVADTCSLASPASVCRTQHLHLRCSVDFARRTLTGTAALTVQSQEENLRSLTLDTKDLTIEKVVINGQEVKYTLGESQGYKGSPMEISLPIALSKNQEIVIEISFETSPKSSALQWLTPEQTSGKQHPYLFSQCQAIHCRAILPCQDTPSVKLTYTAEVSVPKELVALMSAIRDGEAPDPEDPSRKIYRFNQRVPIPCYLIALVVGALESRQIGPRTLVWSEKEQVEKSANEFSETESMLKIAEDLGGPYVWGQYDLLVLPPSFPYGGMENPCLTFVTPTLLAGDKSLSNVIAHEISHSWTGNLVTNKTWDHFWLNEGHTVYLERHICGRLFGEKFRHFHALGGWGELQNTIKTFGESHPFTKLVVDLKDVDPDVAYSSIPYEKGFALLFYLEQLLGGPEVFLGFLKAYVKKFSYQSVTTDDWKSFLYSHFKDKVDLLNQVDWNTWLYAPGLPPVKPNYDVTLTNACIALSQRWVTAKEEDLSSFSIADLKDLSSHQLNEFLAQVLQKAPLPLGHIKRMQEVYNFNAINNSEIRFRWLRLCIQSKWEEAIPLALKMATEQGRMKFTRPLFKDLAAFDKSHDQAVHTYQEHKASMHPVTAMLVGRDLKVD
assay.details: Inhibition of LTA4H in CD1 mouse whole blood assessed as decrease in calcium ionophore-stimulated LTB4 production incubated for 15 mins prior to calcium ionophore challenge measured after 10 to 30 mins by enzyme immunoassay
pIC50: −log10 of the molar value.
Rule: pIC50 under 7 gives f, otherwise t.

Examples from the recorded data:
molecule	assigned.class
c1cnc2nc(Oc3ccc4c(CN5CCCCC5)coc4c3)sc2c1	t
O=C1CCCN1C1CCN(Cc2coc3cc(Oc4nc5ccccc5s4)ccc23)CC1	f
CC(=O)N1CC2CC1CN2Cc1coc2cc(Oc3nc4ncccc4s3)ccc12 (stereo not given)	t
O=C1CCCN1C1CCN(Cc2coc3cc(Oc4nc5ncccc5s4)ccc23)CC1	t
c1ccc2sc(Oc3ccc4c(CN5CCOCC5)coc4c3)nc2c1	f

Hi team, for "CC(=O)NC1CCN(Cc2coc3cc(Oc4nc5ncccc5s4)ccc23)CC1" , is the recorded pIC50 at or above 7?
t

Hi team, for "O=C(O)C1CCN(Cc2coc3cc(Oc4nc5ccccc5s4)ccc23)CC1" , is the recorded pIC50 at or above 7?
t

Hi team, for CC(=O)N1CC2CC1CN2Cc1cc2ccc(Oc3nc4ncccc4s3)cc2o1 (stereo not given) , is the recorded pIC50 at or above 7?
f

###

assay.details: Oral bioavailability in Sprague-Dawley rat at 10 mg/kg
Type: ADME, organism-based
conditions.used: in vivo
endpoint.name: bioavailability (%)
Numbers only, in %.

molecule.smiles	bioavailability, %
O=C1CCCN1C1CCN(Cc2coc3cc(Oc4nc5ncccc5s4)ccc23)CC1	61

Field bioavailability (entry "O=C1CCCN1C1CCN(CCOc2ccc(Oc3nc4ccccc4s3)cc2)CC1" ) reads 29

###

target.under.test: Leukotriene A-4 hydrolase (Homo sapiens)
Sequence (P09960 whole entry): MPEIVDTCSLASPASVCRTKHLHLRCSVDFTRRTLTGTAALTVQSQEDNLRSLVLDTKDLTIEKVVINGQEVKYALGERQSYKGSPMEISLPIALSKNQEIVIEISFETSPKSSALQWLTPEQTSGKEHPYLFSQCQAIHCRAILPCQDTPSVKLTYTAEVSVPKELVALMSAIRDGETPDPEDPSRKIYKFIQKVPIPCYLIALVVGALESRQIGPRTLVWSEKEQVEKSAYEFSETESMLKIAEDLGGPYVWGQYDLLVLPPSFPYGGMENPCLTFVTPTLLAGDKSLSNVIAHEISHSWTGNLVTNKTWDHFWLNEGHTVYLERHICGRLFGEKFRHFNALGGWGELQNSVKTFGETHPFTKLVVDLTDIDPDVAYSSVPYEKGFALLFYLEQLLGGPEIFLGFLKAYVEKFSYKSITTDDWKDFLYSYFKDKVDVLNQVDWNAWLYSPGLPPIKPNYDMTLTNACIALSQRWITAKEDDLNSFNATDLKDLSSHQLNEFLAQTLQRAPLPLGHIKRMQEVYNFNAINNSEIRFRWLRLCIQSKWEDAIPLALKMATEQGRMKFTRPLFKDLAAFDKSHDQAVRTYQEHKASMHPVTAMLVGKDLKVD
assay.details: Inhibition of recombinant human LTA4H expressed in Sf9 cells using LTA4 as substrate incubated for 10 mins prior to substrate addition measured after 10 to 30 mins by enzyme immunoassay
pIC50: −log10 of the molar value.
Rule: pIC50 under 7 gives class 0, otherwise class 1.

Examples from the recorded data:
compound	target.under.test	assigned.class
c1cnc2nc(Oc3ccc4c(CN5CCCCC5)coc4c3)sc2c1	Leukotriene A-4 hydrolase (Homo sapiens)	class 1
CC(=O)N1C[C@@H]2C[C@H]1CN2Cc1coc2cc(Oc3nc4ncccc4s3)ccc12	Leukotriene A-4 hydrolase (Homo sapiens)	class 1
CC(=O)N1CC2CC1CN2Cc1coc2cc(Oc3nc4cnccc4s3)ccc12 (stereo unspecified)	Leukotriene A-4 hydrolase (Homo sapiens)	class 0
c1cnc2nc(Oc3ccc4c(CN5CCOCC5)coc4c3)sc2c1	Leukotriene A-4 hydrolase (Homo sapiens)	class 1

Next, consider the following compound.
Hi team, for "c1ccc2sc(Oc3ccc4cc(CN5CCCCC5)oc4c3)nc2c1" , is the recorded pIC50 at or above 7?
class 0

###

Exercise: for every item that follows, state its recorded IC50.
target.under.test: Leukotriene A-4 hydrolase (Homo sapiens)
assay.details: Inhibition of recombinant human LTA4H expressed in Sf9 cells using LTA4 as substrate incubated for 10 mins prior to substrate addition measured after 10 to 30 mins by enzyme immunoassay
One number for each entry, in nM.

molecule	IC50 [nM]
CC(=O)N[C@H]1C[C@H]2CC[C@@H](C1)N2Cc1coc2cc(Oc3nc4ncccc4s3)ccc12	1.6

Give IC50 for all molecules that follow.
1. CC(=O)N1CC2CC1CN2Cc1cc2ccc(Oc3nc4ncccc4s3)cc2o1 (stereo not given)
2. c1cnc2nc(Oc3ccc4oc(CN5CCCCC5)cc4c3)sc2c1
3. CC(=O)N1C[C@@H]2C[C@H]1CN2Cc1coc2cc(Oc3nc4ccccc4s3)ccc12
4. CC(=O)N1CC2CC1CN2Cc1coc2cc(Oc3nc4ncccc4s3)ccc12 (stereo not given)
5. CC(=O)N1CC2CC1CN2Cc1cc2ccc(Oc3nc4cnccc4s3)cc2o1 (stereo not given)

1: 62; 2: 66; 3: 34; 4: 7.3; 5: 2370

Give IC50 for all molecules that follow.
1. CC(=O)N1CC2CC1CN2Cc1cc2cc(Oc3nc4cnccc4s3)ccc2o1 (stereo not given)
2. CC(=O)N[C@H]1C[C@H]2CC[C@@H](C1)N2Cc1coc2cc(Oc3nc4ccccc4s3)ccc12
3. O=C(O)C1CCN(Cc2coc3cc(Oc4nc5ncccc5s4)ccc23)CC1
4. O=C1CCCN1C1CCN(Cc2coc3cc(Oc4nc5ccccc5s4)ccc23)CC1

340
7.3
8.3
58
